Biological target: MMP-2 (Homo sapiens, UniProt P08253)
Sequence (P08253 110-660, species assumed): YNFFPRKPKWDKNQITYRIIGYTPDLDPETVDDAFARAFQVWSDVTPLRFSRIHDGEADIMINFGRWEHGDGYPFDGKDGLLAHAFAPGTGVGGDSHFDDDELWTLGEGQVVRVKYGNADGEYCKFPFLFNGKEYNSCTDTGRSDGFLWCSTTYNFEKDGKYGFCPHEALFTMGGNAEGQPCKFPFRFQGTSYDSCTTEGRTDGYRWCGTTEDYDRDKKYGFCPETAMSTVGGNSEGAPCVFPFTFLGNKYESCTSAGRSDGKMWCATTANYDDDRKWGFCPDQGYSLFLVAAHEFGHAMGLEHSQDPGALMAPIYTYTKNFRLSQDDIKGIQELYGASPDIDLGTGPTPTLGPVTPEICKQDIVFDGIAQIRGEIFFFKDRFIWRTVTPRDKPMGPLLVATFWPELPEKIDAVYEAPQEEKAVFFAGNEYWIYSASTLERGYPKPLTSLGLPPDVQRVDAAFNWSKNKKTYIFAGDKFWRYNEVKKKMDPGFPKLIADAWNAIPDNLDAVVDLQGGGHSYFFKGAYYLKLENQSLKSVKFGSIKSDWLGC
measurement label: IC50 (µM)

Below: 8 molecules and their reported IC50.
[[record]]
compound_structure = "O=C(O)[C@@H](Cc1ccccc1)NS(=O)(=O)c1ccc(-c2noc(-c3ccc(C4CCCCC4)cc3)n2)cc1"
test_target = "MMP-2 (Homo sapiens, UniProt P08253)"
measurement_label = "IC50"
observed_result = 0.0144

[[record]]
compound_structure = "C[C@@H](NS(=O)(=O)c1ccc(-c2noc(-c3cccs3)n2)cc1)C(=O)O"
test_target = "MMP-2 (Homo sapiens, UniProt P08253)"
measurement_label = "IC50"
observed_result = 0.0368

[[record]]
compound_structure = "C[C@@H](NS(=O)(=O)c1ccc(-c2noc(-c3ccco3)n2)cc1)C(=O)O"
test_target = "MMP-2 (Homo sapiens, UniProt P08253)"
measurement_label = "IC50"
observed_result = 0.0705

[[record]]
compound_structure = "CCc1ccc(-c2nc(-c3ccc(S(=O)(=O)N[C@H](Cc4ccccc4)C(=O)O)cc3)no2)cc1"
test_target = "MMP-2 (Homo sapiens, UniProt P08253)"
measurement_label = "IC50"
observed_result = 0.00498

[[record]]
compound_structure = "CCCCc1ccc(-c2nc(-c3ccc(S(=O)(=O)N[C@H](Cc4ccccc4)C(=O)O)cc3)no2)cc1"
test_target = "MMP-2 (Homo sapiens, UniProt P08253)"
measurement_label = "IC50"
observed_result = 0.00604

[[record]]
compound_structure = "Cc1ccc(-c2nc(-c3ccc(S(=O)(=O)N[C@H](C)C(=O)O)cc3)no2)s1"
test_target = "MMP-2 (Homo sapiens, UniProt P08253)"
measurement_label = "IC50"
observed_result = 0.00874

[[record]]
compound_structure = "CCc1ccc(-c2nc(-c3ccc(S(=O)(=O)N[C@H](Cc4ccccc4)C(=O)O)s3)no2)cc1"
test_target = "MMP-2 (Homo sapiens, UniProt P08253)"
measurement_label = "IC50"
observed_result = 0.0178

[[record]]
compound_structure = "CCCc1ccc(-c2nc(-c3ccc(S(=O)(=O)N[C@@H](C)C(=O)O)cc3)no2)cc1"
test_target = "MMP-2 (Homo sapiens, UniProt P08253)"
measurement_label = "IC50"
observed_result = 0.126


[P] C[C@@H](NS(=O)(=O)c1ccc(-c2noc(-c3ccc(Cl)s3)n2)cc1)C(=O)O
[Q] CCCc1ccc(-c2nc(-c3ccc(S(=O)(=O)N[C@H](Cc4c[nH]c5ccccc45)C(=O)O)cc3)no2)cc1
[R] CCCc1ccc(-c2nc(-c3ccc(S(=O)(=O)N[C@H](C(=O)O)C(C)C)cc3)no2)cc1
[S] O=C(O)[C@@H](Cc1ccccc1)NS(=O)(=O)c1ccc(-c2noc(-c3ccco3)n2)cc1
Request: Arrange the 4 molecules by rising IC50, starting with the smallest. Please list the labels in the order you were asked to rank them.
Result: Q, P, S, R
(Q: 0.00166 µM, P: 0.0124 µM, S: 0.047 µM, R: 0.126 µM)

###

Reported IC50 values, MMP-2 (Homo sapiens).
measurement label: IC50 (nM)

[[record]]
compound = "CC(C)[C@@H](NS(=O)(=O)c1ccc(-c2noc(-c3cccs3)n2)cc1)C(=O)O [Compound A-22]"
observed_result = 40.7


[a] O=C(O)[C@@H](Cc1c[nH]c2ccccc12)NS(=O)(=O)c1ccc(-c2noc(-c3ccc(F)cc3)n2)s1 [Compound B-12]
[b] O=C(O)[C@@H](Cc1ccccc1)NS(=O)(=O)c1ccc(-c2noc(-c3ccc(F)cc3)n2)s1 [Compound B-3]
Request: Could you please tell me which of these two has the higher IC50: a or b ? Mark your answer with the label of the selected entry.
Result: b
